Molecular target: wild type c-kit (Homo sapiens (Human), UniProt P10721)
Sequence (P10721 26-976): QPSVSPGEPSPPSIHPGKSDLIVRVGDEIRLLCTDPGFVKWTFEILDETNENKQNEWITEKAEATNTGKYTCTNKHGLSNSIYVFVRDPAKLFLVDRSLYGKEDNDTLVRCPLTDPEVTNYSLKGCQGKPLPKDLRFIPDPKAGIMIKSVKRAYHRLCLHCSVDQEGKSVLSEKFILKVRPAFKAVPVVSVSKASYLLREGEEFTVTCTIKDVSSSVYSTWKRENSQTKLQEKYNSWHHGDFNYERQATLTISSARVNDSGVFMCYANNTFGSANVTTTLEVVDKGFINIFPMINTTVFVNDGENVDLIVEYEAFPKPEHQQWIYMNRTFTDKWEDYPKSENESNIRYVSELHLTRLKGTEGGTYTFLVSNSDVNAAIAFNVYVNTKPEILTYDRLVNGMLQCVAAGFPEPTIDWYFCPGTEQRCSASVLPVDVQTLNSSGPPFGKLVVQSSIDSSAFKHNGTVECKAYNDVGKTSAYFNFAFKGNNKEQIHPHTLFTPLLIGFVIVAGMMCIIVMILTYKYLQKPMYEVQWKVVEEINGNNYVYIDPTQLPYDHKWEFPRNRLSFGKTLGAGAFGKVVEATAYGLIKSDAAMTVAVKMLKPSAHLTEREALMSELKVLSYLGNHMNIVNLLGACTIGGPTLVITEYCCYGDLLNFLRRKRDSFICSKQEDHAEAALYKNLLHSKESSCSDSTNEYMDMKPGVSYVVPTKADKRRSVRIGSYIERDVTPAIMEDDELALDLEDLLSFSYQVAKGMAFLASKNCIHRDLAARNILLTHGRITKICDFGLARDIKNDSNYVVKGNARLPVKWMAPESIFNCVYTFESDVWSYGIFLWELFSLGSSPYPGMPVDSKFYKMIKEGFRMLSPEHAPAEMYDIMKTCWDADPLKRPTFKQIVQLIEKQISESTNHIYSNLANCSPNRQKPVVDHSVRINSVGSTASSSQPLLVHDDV
Experiment: MSD Phospho c-Kit (Tyr721) Assay Whole Cell Lysate Kit in SCF-stimulated M-07e cells (pKIT assay, marked *)
Type: cell-based
Conditions: Meso Scale Discovery (MSD) assay (values marked *)
Endpoint label: IC50
Numeric answer plus unit only.

Prompt: Report IC50 for Cc1ccc(-c2nnn([C@H](C)C3CC3)n2)cc1NC(=O)c1cnn2ccccc12 (single isomer, unassigned) [Example 37] please.
Response: 6.2 nM

Prompt: One more compound: Cc1ccc(-c2nnn(C3CN(S(=O)(=O)CCO)C3)n2)cc1NC(=O)c1cnn2ccccc12
Response: 16.7 nM

Prompt: One more compound: COC(=O)N1CC(c2nnn(-c3ccc(Cl)c(NC(=O)c4cnn5ccccc45)c3)n2)C1
Response: 11.6 nM

Prompt: One more compound: Cc1ccc(-c2nnn(C3CCOCC3)n2)cc1NC(=O)c1cnn2ccccc12
Response: 8.3 nM
